Experiment: Cmax in Sprague-Dawley rat at 1 mg/kg, iv
Type: ADME, organism-based
Set-up: dose 1 mg/kg, route intravenous
Settings: in vivo
Quantity Name: Cmax (µM)

Record excerpt, results attached:
1) Cc1ccc2c(C(=O)O)c(O)c(-c3ccc(C(F)(F)F)cc3)nc2c1C = 9
2) O=C(O)c1c(O)c(-c2ccc(Cl)cc2)nc2c(-c3ccccc3)cccc12 = 9
3) CCC(C)c1cccc2c(C(=O)O)c(O)c(-c3ccc(Cl)cc3)nc12 (stereo unspecified) = 6.7

A = CC(C)c1cccc2c(C(=O)O)c(O)c(-c3ccc(Cl)cc3)nc12
B = Cc1ccc2c(C(=O)O)c(O)c(-c3ccc(Cl)cc3)nc2c1C
Choose between A and B : whose measured Cmax value is numerically larger? # respond with the chosen item's label
B

====

Biological target: Cytochrome P450 2C19 (Homo sapiens, UniProt P33261)
Sequence (P33261 whole entry): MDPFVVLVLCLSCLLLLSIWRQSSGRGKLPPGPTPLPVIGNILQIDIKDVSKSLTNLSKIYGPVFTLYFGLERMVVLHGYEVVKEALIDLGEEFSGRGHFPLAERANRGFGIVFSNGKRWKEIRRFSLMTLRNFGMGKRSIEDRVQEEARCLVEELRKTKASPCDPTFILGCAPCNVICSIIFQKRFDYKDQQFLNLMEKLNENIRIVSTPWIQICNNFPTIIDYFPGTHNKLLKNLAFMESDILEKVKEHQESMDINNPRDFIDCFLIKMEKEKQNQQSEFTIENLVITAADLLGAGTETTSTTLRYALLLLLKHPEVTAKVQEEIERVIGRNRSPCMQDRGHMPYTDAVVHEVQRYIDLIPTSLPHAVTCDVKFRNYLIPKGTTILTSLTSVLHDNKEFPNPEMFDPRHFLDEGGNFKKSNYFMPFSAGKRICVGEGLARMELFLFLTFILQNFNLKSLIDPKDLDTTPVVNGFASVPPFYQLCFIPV
Quantity Name: pIC50
Please keep in mind that pIC50 is minus log10 of the molar concentration; only the number is needed.

# query: pIC50 of entry O=C(O)c1c(O)c(-c2ccc(Cl)cc2)nc2c(-c3ccccc3)cccc12
3.84

====

Molecular target: UniProt:P05177
Sequence (P05177 whole entry): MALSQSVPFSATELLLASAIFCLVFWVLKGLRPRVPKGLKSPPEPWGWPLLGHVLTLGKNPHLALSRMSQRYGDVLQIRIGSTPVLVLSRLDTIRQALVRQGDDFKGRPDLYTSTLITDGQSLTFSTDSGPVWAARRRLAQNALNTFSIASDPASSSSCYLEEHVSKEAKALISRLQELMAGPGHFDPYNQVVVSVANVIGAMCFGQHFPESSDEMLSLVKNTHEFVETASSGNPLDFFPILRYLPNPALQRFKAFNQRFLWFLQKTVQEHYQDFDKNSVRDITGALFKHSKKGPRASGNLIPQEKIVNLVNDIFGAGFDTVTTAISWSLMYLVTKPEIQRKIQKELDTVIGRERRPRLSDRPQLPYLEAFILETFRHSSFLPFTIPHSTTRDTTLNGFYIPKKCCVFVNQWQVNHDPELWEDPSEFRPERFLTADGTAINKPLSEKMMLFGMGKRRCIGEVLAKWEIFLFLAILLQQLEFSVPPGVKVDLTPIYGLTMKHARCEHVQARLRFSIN
Quantity Name: IC50 (µM)
Write the answer as a number in µM, unit excluded.

GET /values?readout=IC50&system=UniProt:P05177&item= Cc1ccc2c(C(=O)O)c(O)c(-c3ccc(Cl)cc3)nc2c1C
4

====

Reported pIC50 for target or system Dihydroorotate dehydrogenase (quinone), mitochondrial (Homo sapiens, UniProt Q02127), by entry.
pIC50: −log10 of the molar value.
Quantity Name: pIC50

1) O=C(O)c1c(O)c(-c2ccc(Cl)cc2)nc2c(C(F)(F)F)cccc12 = 3.87
2) Nc1c(-c2ccc(-c3ccccc3)cc2)nc2ccc(F)cc2c1C(=O)O = 7.92

P = CCC(C)c1cccc2c(C(=O)O)c(O)c(-c3ccc(Cl)cc3)nc12 (centres undefined)
Q = O=C(O)c1c(O)c(-c2ccc(Cl)cc2)nc2ccc(-c3ccsc3)cc12
Choose between P and Q : whose measured pIC50 value is numerically larger? # respond with the chosen item's label
Q

====

System: Rattus norvegicus
Test: Plasma concentration in Lewis rat Freund's complete adjuvant-induced arthritis model at 10 mg/kg, po
Format: ADME, organism-based
Set-up: dose 10 mg/kg, route oral
Conditions: in vivo
Quantity Name: concentration (nM)

A = O=C(O)c1c(O)c(-c2ccc(Cl)cc2)nc2c(-c3ccccc3)cccc12
B = Cc1ccc2c(C(=O)O)c(O)c(-c3ccc(Cl)cc3)nc2c1C
Choose between A and B : whose measured concentration value is numerically larger? # respond with the chosen item's label
B
